Tested on: pY641-STAT6 in Peripheral Blood Mononuclear Cells (PBMC)
Test: MSD-pSTAT-PBMC Assay (pSTAT6, IL-4 stimulated)
Assay type: cell-based, Human
Settings: Homo sapiens, compound 3 hrs, then 1 ng/mL IL-4 for 10 min
pIC50: −log10 of the molar value.
observable: pIC50

Below, each entry is followed by its recorded pIC50 result.
# molecule, assayed.system, pIC50
records = [
    ("CC(=O)N1CC[C@H]2CC[C@@H](C(=O)N3C[C@H](c4ccccc4)[C@@H](C#N)C3)N2C(=O)[C@@H](NC(=O)c2cc3cc(C(F)(F)P(=O)(OCOC(=O)OC(C)C)OCOC(=O)OC(C)C)ccc3s2)C1 (single isomer, unassigned)", "pY641-STAT6 in Peripheral Blood Mononuclear Cells (PBMC)", "≥ 7.00"),
    ("CC(=O)N1CC[C@H]2CC[C@@H](C(=O)N(C)c3ccccc3)N2C(=O)[C@@H](NC(=O)c2ccc3cc(C(F)(F)P(=O)(OCOC(=O)C(C)(C)C)OCOC(=O)C(C)(C)C)ccc3c2)C1", "pY641-STAT6 in Peripheral Blood Mononuclear Cells (PBMC)", "< 5.52"),
    ("CCCOC(=O)[C@H](C)NP(=O)(Oc1ccccc1)C(F)c1ccc2ccc(C(=O)N[C@H]3CN(C(=O)c4noc5ccc(Cl)cc45)CC[C@H]4CC[C@@H](C(=O)N5CCOCC5)N4C3=O)cc2c1 (stereo partly shown)", "pY641-STAT6 in Peripheral Blood Mononuclear Cells (PBMC)", "≥ 7.00"),
    ("Cc1ccc2onc(C(=O)N3CC[C@H]4CC[C@@H](C(=O)N5C[C@@H](c6cc[nH]c(=O)c6)CC56CC6)N4C(=O)[C@@H](NC(=O)c4ccc5ccc(C(F)(F)P(=O)(OCCSC(=O)C(C)(C)C)OCCSC(=O)C(C)(C)C)cc5c4)C3)c2c1", "pY641-STAT6 in Peripheral Blood Mononuclear Cells (PBMC)", "≥ 7.00"),
    ("CCCOC(=O)[C@H](C)NP(=O)(Oc1ccccc1)C(F)c1ccc2sc(C(=O)N[C@H]3CN(CC(F)F)CC[C@H]4CC[C@@H](C(=O)N5C[C@@H](C#N)[C@H](c6ccccc6)C5)N4C3=O)cc2c1 (stereo partly shown)", "pY641-STAT6 in Peripheral Blood Mononuclear Cells (PBMC)", "≥ 7.00"),
    ("CC(=O)N1CC[C@H]2CC[C@@H](C(=O)Nc3ccc(-c4ccccc4)cc3)N2C(=O)[C@@H](NC(=O)/C=C/c2ccc(C(F)(F)P(=O)(OCOC(=O)C(C)(C)C)OCOC(=O)C(C)(C)C)cc2)C1", "pY641-STAT6 in Peripheral Blood Mononuclear Cells (PBMC)", "< 5.52"),
    ("CC(C)CC(=O)SCCOP(=O)(OCCSC(=O)CC(C)C)C(F)(F)c1ccc2ccc(C(=O)N[C@H]3CN(CC(F)F)CC[C@H]4CC[C@@H](C(=O)N5C[C@H](c6cc(F)cc(F)c6)[C@@H](C#N)C5)N4C3=O)cc2c1 (relative stereo)", "pY641-STAT6 in Peripheral Blood Mononuclear Cells (PBMC)", "5.52 to 6.00"),
    ("CC(=O)N1CC[C@H]2CC[C@@H](C(=O)N3C[C@H](c4cc[nH]c(=O)c4)[C@@H](C#N)C3)N2C(=O)[C@@H](NC(=O)c2ccc3ccc(C(F)(F)P(=O)(OCCSC(=O)CC(C)C)OCOC(=O)OC(C)C)cc3c2)C1 (single isomer, unassigned)", "pY641-STAT6 in Peripheral Blood Mononuclear Cells (PBMC)", "6.00 to 7.00"),
]

Looking up "Cc1ccc2onc(C(=O)N3CC[C@H]4CC[C@@H](C(=O)N5C[C@@H](c6ccn(C)c(=O)c6)CC56CC6)N4C(=O)[C@@H](NC(=O)c4ccc5ccc(C(F)(F)P(=O)(OCCSC(=O)C(C)(C)C)OCCSC(=O)C(C)(C)C)cc5c4)C3)c2c1" , I see its pIC50 listed as ≥ 7.00

Item: "COC(=O)[C@@H]1CCCN1C(=O)OCOP(=O)(OCOC(=O)N1CCC[C@H]1C(=O)OC)C(F)(F)c1ccc2sc(C(=O)N[C@H]3CN(C(C)=O)CC[C@H]4CC[C@@H](C(=O)N(C)c5ccccc5)N4C3=O)cc2c1" | pIC50: < 5.52

Record summary for CC(C)(C)C(=O)OCOP(=O)(OCOC(=O)C(C)(C)C)C(F)(F)c1ccc2ccc(C(=O)N[C@H]3CN(CC(F)F)CC[C@H]4CC[C@@H](C(=O)N5C[C@@H](C#N)[C@H](c6ccccc6)C5)N4C3=O)cc2c1 (single isomer, unassigned) : reported pIC50 = ≥ 7.00

The molecule listed as CCCOC(=O)[C@H](C)NP(=O)(Oc1ccccc1)C(F)c1ccc2ccc(C(=O)N[C@H]3CN(C(=O)c4noc5ccc(C)cc45)CC[C@H]4CC[C@@H](C(=O)N5CCOC[C@@H]5c5ccccc5)N4C3=O)cc2c1 (stereo partly shown) shows pIC50 equal to 6.00 to 7.00

Form: molecule = CC(C)(C)C(=O)SCCOP(=O)(OCCSC(=O)C(C)(C)C)C(F)(F)c1ccc2ccc(C(=O)N[C@H]3CN(CC(F)F)CC[C@H]4CC[C@@H](C(=O)N5C[C@@H](C#N)[C@H](c6ccccc6)C5)N4C3=O)cc2c1 (single isomer, unassigned) ; pIC50 = 6.00 to 7.00

The recorded pIC50 for CC(=O)N1CC[C@H]2CC[C@@H](C(=O)N3C[C@@H](C#N)[C@H](c4ccccc4)C3)N2C(=O)[C@@H](NC(=O)c2cc3cc(C(F)(F)P(=O)(OCOC(=O)OC(C)C)OCOC(=O)OC(C)C)ccc3s2)C1 (single isomer, unassigned) is ≥ 7.00

The molecule listed as "CC(=O)N1CC[C@H]2CC[C@@H](C(=O)Nc3ccc(-c4ccccc4)cc3)N2C(=O)[C@@H](NC(=O)c2cc3cc(C(F)(F)P(=O)(OCOC(=O)C(C)(C)C)OCOC(=O)C(C)(C)C)ccc3[nH]2)C1" has a reported pIC50 of 6.00 to 7.00

Value of pIC50 reported for the molecule "CC(=O)N1CC[C@H]2CC[C@@H](C(=O)N(C)c3ccc4nnccc4c3)N2C(=O)[C@@H](NC(=O)c2cc3cc(C(F)(F)P(=O)(OCOC(=O)C(C)(C)C)OCOC(=O)C(C)(C)C)ccc3s2)C1" is 6.00 to 7.00

====

// IC50 lookup, one value per entry
Target: Recombinant STAT3 protein (STAT3(G127-I722)) (Homo sapiens, UniProt P40763)
Construct: Recombinant STAT3 protein (STAT3(G127-I722))
Sequence (P40763 127-722): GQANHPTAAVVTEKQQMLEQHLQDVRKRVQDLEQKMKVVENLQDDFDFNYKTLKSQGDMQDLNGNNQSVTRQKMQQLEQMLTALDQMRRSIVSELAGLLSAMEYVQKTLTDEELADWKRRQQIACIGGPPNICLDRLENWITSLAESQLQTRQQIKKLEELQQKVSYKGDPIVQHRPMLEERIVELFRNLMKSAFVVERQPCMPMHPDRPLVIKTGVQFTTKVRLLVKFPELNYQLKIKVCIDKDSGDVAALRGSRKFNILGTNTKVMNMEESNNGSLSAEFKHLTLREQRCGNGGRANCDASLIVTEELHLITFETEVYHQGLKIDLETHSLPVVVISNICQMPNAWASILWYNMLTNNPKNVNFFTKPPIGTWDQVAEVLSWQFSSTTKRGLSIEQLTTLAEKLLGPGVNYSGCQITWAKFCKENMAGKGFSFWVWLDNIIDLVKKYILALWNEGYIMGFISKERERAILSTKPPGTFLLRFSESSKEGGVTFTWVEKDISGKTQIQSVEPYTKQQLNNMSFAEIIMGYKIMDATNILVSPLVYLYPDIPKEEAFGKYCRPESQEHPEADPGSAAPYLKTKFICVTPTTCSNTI
Assay: STAT3 Fluorescence Polarization (FP) Assay
Settings: STAT3(G127-I722) 25 nM, probe 5-FAM-GpYLPQTV-NH2 2 nM, 45-minute incubation

# compound, result
measured = [
    ("CC(=O)N1CC[C@H]2CC[C@@H](C(=O)Nc3cnc(S(C)(=O)=O)nc3)N2C(=O)[C@@H](NC(=O)c2cc3cc(C(F)(F)P(=O)(O)O)ccc3s2)C1", "1000 to 10000 nM"),
    ("CC(=O)N1CC[C@H]2CC[C@@H](C(=O)N(C)c3ccccc3)N2C(=O)[C@@H](NC(=O)c2cc3cc(C(F)P(=O)(O)O)ccc3s2)C1 (some centres unmarked)", "> 10000 nM"),
    ("CC(=O)N1CC[C@H]2CC[C@@H](C(=O)Nc3ccc4cn(C)nc4c3)N2C(=O)[C@@H](NC(=O)c2cc3cc(C(F)(F)P(=O)(O)O)ccc3s2)C1", "1000 to 10000 nM"),
]

Kindly note the recorded IC50 for "CC(=O)N1CC[C@H]2CC[C@@H](C(=O)N(C)c3ccc(-c4ccccc4)cc3)N2C(=O)[C@@H](NC(=O)c2cc3cc(C(F)(F)P(=O)(O)O)ccc3[nH]2)C1" , which is 1000 to 10000 nM

What the record says about "CC(=O)N1CC[C@H]2CC[C@@H](C(=O)Nc3ccc(-c4ccccc4)cc3)N2C(=O)[C@@H](NC(=O)c2cc3cc(C(F)(F)P(=O)(O)O)c(F)cc3s2)C1" : IC50 is 1000 to 10000 nM

Per the record, "CC(=O)N1CC[C@H]2CC[C@@H](C(=O)Nc3ccc4nccnc4c3)N2C(=O)[C@@H](NC(=O)c2cc3cc(C(F)(F)P(=O)(O)O)ccc3s2)C1" has IC50 of 1000 to 10000 nM

Documented IC50 of "CC(=O)N1CC[C@H]2CC[C@@H](C(=O)N3CCOc4cc(-c5ccccc5)ccc43)N2C(=O)[C@@H](NC(=O)c2cc3cc(C(F)(F)P(=O)(O)O)ccc3s2)C1" : 100 to 1000 nM

Data point: Cc1ccc2onc(C(=O)N3CC[C@H]4CC[C@@H](C(=O)N5CCOCC5)N4C(=O)[C@@H](NC(=O)c4ccc5ncc(C(F)P(=O)(O)O)cc5c4)C3)c2c1 (some centres unmarked) ; IC50 = > 10000 nM

// field: IC50; key: Cc1ccc2onc(C(=O)N3CC[C@H]4CC[C@@H](C(=O)N5CCOC(Cc6ccccc6)C5)N4C(=O)[C@@H](NC(=O)c4ccc5ccc(C(F)P(=O)(O)O)cc5c4)C3)c2c1 (some centres unmarked) ; value = > 10000 nM

"CC(=O)N1CC[C@H]2CC[C@@H](C(=O)N(C)C)N2C(=O)[C@@H](NC(=O)c2cc3cc(C(F)(F)P(=O)(O)O)ccc3[nH]2)C1" yielded IC50 of 1000 to 10000 nM

Kindly note the recorded IC50 for "CC(=O)N1CC[C@H]2CC[C@@H](C(=O)N3CC(Oc4ccccc4)C3)N2C(=O)[C@@H](NC(=O)c2cc3cc(C(F)(F)P(=O)(O)O)ccc3[nH]2)C1" , which is 100 to 1000 nM
